Molecular target: human calcium receptor (Homo sapiens, UniProt P41180, R990G)
Construct: expressed in transfected cells; host or cells: HEK 293
Sequence (P41180 20-1078 R990G): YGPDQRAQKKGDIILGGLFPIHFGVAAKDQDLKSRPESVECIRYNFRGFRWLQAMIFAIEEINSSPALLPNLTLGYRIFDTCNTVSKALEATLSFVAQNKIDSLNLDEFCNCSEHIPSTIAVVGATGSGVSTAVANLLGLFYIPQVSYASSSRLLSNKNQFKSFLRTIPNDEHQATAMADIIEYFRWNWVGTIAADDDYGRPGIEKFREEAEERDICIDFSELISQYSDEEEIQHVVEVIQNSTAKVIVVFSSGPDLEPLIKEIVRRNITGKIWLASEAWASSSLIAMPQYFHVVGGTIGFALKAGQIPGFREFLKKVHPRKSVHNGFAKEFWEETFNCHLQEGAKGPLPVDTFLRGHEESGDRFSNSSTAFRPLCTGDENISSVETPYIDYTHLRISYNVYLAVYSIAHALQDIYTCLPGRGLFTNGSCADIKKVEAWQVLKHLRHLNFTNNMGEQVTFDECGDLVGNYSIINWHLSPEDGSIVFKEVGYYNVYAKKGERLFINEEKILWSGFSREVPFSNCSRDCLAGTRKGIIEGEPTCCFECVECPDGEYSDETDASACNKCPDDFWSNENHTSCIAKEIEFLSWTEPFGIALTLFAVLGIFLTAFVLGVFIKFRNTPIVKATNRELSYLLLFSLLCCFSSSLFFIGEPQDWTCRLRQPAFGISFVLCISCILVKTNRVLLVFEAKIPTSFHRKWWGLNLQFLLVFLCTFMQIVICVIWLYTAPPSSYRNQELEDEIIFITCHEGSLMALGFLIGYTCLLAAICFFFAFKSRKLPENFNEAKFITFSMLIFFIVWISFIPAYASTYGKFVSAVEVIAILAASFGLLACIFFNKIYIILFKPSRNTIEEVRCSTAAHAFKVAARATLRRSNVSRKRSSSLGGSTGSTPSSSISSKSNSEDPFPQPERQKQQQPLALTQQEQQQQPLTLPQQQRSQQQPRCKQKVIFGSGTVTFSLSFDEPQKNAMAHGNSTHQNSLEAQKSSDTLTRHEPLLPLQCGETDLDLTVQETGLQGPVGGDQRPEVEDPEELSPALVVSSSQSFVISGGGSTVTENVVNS
Experiment: increases in [Ca^2+ ]i in HEK-293 cells expressing the human calcium receptor (fura-2 loaded HEK 293/pHuPCaR4.0 cells), % activity
Type: cell-based
Settings: 33 ng/mL
In plain terms, low % activity, meaning strictly below 50%, gives 1 (yes), and everything else gives 0 (no).

IN: Given C[C@@H](NCc1cccc(Cl)c1)c1cccc2ccccc12 [Compound 13M] , is recorded % activity strictly lower than 50%?
OUT: 0 (no)

----------
Target: human calcium receptor (Homo sapiens, UniProt P41180, R990G)
Construct: expressed in transfected cells; host or cells: HEK 293
Assay: increases in [Ca^2+ ]i in HEK-293 cells expressing the human calcium receptor (fura-2 loaded HEK 293/pHuPCaR4.0 cells), % activity
Format: cell-based
Conditions: 33 ng/mL
Measurement type: % activity (%)
Please state the figure in %; there is no need to write the unit.

Form field % activity, entry Cc1ccc([C@@H](C)N[C@H](C)c2cccc3ccccc23)cc1C [Compound 17N] : 86

Form field % activity, entry COc1cccc([C@@H](C)NCCCc2cccc(Cl)c2)c1 : 52

Form field % activity, entry CC(C)Cc1ccc(C(C)CNC(C)c2cccc3ccccc23)cc1 (mixture of isomers) [Compound 14A] : 10

Next:
Form field % activity, entry COc1ccc(CNC(C)c2cccc(C(C)=O)c2)cc1C (stereo not shown) [Compound 23U] : 48

Form field % activity, entry CC(NCCC(c1ccccc1)c1ccccc1)c1ccc(O)cc1 (stereo not shown) : 2

Form field % activity, entry COc1ccc(CN[C@H](C)c2cccc3ccccc23)cc1Br [Compound 24X] : 124

Form field % activity, entry COc1cccc([C@@H](C)NCC=Cc2ccccc2)c1 [Compound 25E] : 122

Form field % activity, entry CC(NC(C)c1cccc2ccccc12)c1ccc(Cl)c(Cl)c1 (stereo not shown) [Compound 17K] : 73

Form field % activity, entry COc1ccc(C(N[C@H](C)c2cccc3ccccc23)C2CC2)cc1 (stereo partly shown) [Compound 17H] : 111

Form field % activity, entry COc1ccc(CN[C@H](C)c2cccc3ccccc23)cc1Cl.Cl [Compound 17M] : 99

Form field % activity, entry COc1cccc(C(C)NCc2ccc(C=Cc3ccccc3)cc2)c1 (stereo not shown) [Compound 12M] : 56

Form field % activity, entry COc1ccc(CCNC(C)c2cccc3ccccc23)cc1 (stereo not shown) [Compound 15J] : 64

Form field % activity, entry C[C@@H](CCc1ccccc1)N[C@H](C)c1cccc2ccccc12 [Compound 21G] : 63

Form field % activity, entry COc1cccc(C(C)NC(C)c2cccc3ccccc23)c1 (stereo not shown) [Compound 14Y] : 73

----------
Biological target: human calcium receptor (Homo sapiens, UniProt P41180, R990G)
Construct: expressed in transfected cells; host or cells: HEK 293
Assay: increases in [Ca^2+ ]i in HEK-293 cells expressing the human calcium receptor (fura-2 loaded HEK 293/pHuPCaR4.0 cells), % activity
Format: cell-based
Conditions: 3300 ng/mL
Entries and their % activity

# example entries with known answers
Form field % activity, entry Cc1cc(C(C)NC(C)c2cccc3ccccc23)ccc1OCc1ccccc1 (mixture of isomers) [Compound 25X] : 96%

Form field % activity, entry CC(NC(C)c1ccc(C(C)(C)C)cc1)c1ccccc1 (mixture of isomers) [Compound 13H] : 88%

Form field % activity, entry COc1ccc(CNCc2ccccc2OC)cc1C [Compound 17V] : 91%

Form field % activity, entry CC(NC(C)c1cccc2ccccc12)c1ccc2c(c1)-c1ccccc1-2 (stereo not shown) [Compound 10Q] : 103%

Next:
Form field % activity, entry COc1ccc(CNC(C)c2cccc(C#N)c2)cc1C (stereo not shown) [Compound 24E] : 94%

Form field % activity, entry Cc1ccc(CNC(C)c2ccc(C(C)(C)C)cc2)cc1 (stereo not shown) [Compound 14B] : 75%

Form field % activity, entry COc1cccc([C@@H](C)NCC=Cc2cccc(C)c2)c1 [Compound 12G] : 139%

Form field % activity, entry COc1ccc(CNC(C)c2cccc(SC)c2)cc1C (stereo not shown) [Compound 24Z] : 138%

----------
Target: human calcium receptor (Homo sapiens, UniProt P41180, R990G)
Construct: expressed in transfected cells; host or cells: HEK 293
Sequence (P41180 20-1078 R990G): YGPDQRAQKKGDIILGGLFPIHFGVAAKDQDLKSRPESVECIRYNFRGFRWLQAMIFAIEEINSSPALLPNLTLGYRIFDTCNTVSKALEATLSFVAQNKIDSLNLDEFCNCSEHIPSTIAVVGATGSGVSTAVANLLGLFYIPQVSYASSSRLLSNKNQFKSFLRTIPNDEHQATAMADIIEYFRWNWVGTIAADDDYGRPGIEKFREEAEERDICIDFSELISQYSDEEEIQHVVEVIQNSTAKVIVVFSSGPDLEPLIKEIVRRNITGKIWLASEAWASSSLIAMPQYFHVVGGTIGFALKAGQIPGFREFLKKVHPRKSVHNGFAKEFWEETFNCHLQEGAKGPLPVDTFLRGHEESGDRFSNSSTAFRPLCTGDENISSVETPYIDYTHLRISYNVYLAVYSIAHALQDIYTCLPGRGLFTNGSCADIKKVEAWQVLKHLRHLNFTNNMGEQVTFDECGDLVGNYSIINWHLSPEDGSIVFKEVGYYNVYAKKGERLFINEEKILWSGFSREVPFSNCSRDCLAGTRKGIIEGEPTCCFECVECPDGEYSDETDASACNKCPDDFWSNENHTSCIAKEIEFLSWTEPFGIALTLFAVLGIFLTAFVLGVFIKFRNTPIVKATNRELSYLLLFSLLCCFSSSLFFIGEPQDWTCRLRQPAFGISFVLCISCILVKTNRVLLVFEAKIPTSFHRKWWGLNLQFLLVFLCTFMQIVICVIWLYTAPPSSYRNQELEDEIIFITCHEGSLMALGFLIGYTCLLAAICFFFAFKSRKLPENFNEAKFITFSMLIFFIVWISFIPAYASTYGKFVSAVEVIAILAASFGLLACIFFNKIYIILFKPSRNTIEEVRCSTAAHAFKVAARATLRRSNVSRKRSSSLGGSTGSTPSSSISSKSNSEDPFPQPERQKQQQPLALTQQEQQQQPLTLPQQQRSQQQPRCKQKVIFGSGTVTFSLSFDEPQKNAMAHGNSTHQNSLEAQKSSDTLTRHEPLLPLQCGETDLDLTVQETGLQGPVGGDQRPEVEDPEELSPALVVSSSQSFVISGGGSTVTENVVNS
Assay: increases in [Ca^2+ ]i in HEK-293 cells expressing the human calcium receptor (fura-2 loaded HEK 293/pHuPCaR4.0 cells), % activity
Type: cell-based
Conditions: 330 ng/mL
Entries and their % activity
Kindly report the value followed by its unit.

# example entries with known answers
Form field % activity, entry COc1ccc(CNC(C)c2ccccc2C)cc1C (stereo not drawn) [Compound 23W] : 97%

Form field % activity, entry COc1cccc([C@@H](C)NCC=Cc2ccccc2C)c1 [Compound 12C] : 125%

Form field % activity, entry COc1ccc(CNC(C)c2ccc(F)c3ccccc23)cc1C (stereo not drawn) [Compound 18A] : 111%

Next:
Form field % activity, entry C[C@@H](NCc1ccc(C(C)(C)C)cc1)c1cccc2ccccc12 [Compound 15G] : 113%

Form field % activity, entry C[C@@H](NCc1cccc(Cl)c1)c1cccc2ccccc12 [Compound 13M] : 92%

FYI, the data here is from patent US6211244A.
